Item-by-item account of % Competition
# experimentalTarget: T1, mFc tagged human SIRPα v1 ECD recombinant protein (human, UniProt P78324 31-373)
# T1 construct: extracellular domain; not shown: mouse Fc tag
# T1 sequence (P78324 31-373): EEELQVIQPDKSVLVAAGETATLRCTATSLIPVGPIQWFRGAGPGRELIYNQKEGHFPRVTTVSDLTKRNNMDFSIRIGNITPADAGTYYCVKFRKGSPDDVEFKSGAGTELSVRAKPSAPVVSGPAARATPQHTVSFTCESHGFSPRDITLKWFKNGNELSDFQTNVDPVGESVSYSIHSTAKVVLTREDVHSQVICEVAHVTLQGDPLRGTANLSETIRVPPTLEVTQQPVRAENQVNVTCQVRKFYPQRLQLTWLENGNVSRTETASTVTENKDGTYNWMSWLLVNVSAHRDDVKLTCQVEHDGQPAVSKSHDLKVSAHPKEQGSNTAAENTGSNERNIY
# assayDetails: competitive ELISA; row antibody in excess in solution, coated mAb hu1H9G4
# number only, unit % dropped from output

Data request: Data request, read-out % Competition, for Anti-SIRPα antibody C25 (antibody, V domains shown, Mouse variable regions; also called 025c; 025) VH: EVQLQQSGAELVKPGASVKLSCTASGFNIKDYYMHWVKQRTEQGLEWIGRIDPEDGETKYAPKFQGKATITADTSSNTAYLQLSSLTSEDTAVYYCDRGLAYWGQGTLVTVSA VL: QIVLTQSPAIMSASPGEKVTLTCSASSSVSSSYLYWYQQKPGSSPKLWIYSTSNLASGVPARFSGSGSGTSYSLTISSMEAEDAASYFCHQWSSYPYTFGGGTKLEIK
Data returned: 15.3

Data request: Similarly, Reference anti-SIRPα antibody hu1H9G4 (antibody, human IgG4, V domains shown) VH: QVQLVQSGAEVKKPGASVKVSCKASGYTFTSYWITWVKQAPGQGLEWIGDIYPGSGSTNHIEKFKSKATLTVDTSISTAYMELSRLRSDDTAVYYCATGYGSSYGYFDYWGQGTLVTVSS VL: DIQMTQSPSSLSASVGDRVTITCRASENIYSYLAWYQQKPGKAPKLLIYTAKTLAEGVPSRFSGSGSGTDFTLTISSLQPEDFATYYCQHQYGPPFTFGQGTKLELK ?
Data returned: 90.5

Data request: Similarly, Anti-SIRPα antibody C42 (antibody, human IgG4, V domains shown, Mouse variable regions; also called 042c) VH: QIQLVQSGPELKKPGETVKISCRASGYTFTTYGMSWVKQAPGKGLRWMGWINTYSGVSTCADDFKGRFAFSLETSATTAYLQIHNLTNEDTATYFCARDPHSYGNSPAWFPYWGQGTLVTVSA VL: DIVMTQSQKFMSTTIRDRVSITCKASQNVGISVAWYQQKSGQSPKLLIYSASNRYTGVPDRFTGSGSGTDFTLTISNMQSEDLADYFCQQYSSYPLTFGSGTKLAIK ?
Data returned: 29.8

// switching to the query binder
Data request: Data request, read-out % Competition, for Anti-SIRPα antibody C73 (antibody, human IgG4, V domains shown, Mouse variable regions; also called 073c; 073C) VH: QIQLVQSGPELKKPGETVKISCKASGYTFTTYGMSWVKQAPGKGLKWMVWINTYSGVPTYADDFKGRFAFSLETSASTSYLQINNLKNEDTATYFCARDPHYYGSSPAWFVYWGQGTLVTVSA VL: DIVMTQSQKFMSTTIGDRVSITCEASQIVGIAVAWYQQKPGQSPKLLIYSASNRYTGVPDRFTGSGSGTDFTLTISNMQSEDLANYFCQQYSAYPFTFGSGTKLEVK
Data returned: 37.7
